- Organism: Homo sapiens
- measurement-notes: Selectivity for human A2B receptor over human A2A receptor
quantity: Ratio Ki
Answer with a bare number; do not write a unit.

Please look up its Ratio Ki: CCCCn1c(=O)[nH]c2nc(-c3cnn(Cc4ccccc4)c3)[nH]c2c1=O
100

Turning now to a further record.
Suppose we examine the compound CCCn1c(=O)c2[nH]c(-c3cnn(Cc4cccc(C(F)(F)F)c4)c3)nc2n(CCC)c1=O ; what Ratio Ki value has been reported?
27

----------
Protein target, amino acids: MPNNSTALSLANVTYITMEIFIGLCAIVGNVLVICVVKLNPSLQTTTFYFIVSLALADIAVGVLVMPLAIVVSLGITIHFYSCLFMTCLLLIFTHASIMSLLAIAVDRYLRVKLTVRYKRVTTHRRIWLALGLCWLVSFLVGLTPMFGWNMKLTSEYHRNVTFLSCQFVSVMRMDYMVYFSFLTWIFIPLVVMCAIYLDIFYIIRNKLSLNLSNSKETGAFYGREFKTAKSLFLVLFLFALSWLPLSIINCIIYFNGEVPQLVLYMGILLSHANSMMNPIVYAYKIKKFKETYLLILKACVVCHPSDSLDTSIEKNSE
pKi: −log10 of the molar value.
compounds and their reported pKi

What value of pKi has been reported for the following compound? CCCn1c(=O)[nH]c2nc(-c3cnn(Cc4noc(-c5ccc(C(F)(F)F)cc5)n4)c3)[nH]c2c1=O
< 5.05

More entries:
Consider the compound CCCn1c(=O)c2[nH]c(-c3cnn(Cc4cccc(C(F)(F)F)c4)c3)nc2n(CCC)c1=O and give its measured pKi.
6.85

Moving on to the next compound: O=c1[nH]c2nc(-c3cnn(Cc4noc(-c5ccc(Cl)cc5)n4)c3)[nH]c2c(=O)n1CC1CC1
< 5.05

Queued: CCn1c(=O)[nH]c2nc(-c3cnn(Cc4cccc(C(F)(F)F)c4)c3)[nH]c2c1=O
< 5.05

Values were extracted from ChEMBL document CHEMBL1141482.
